System: Escherichia coli TOP10
assay comment: shrunken log2 fold change of peptide-encoding DNA abundance (4.5 h post-induction vs induction); higher = less antimicrobial activity (less host growth inhibition)
condition notes: time post-induction: 4.5 h; library: site-saturation at positions 5, 18, 19, 20
Each item that follows carries a reported shrunken log2 fold change.
Reply with just the number.

Reference set, count: 6
item sequence: RRIRSRPPRLPRPRPRPQNFPRP
test value: 0.00814

item sequence: RRIRQRPPRLPRPRPRPIKDPRP
test value: -0.034

item sequence: RRIRLRPPRLPRPRPRPDNLPRP
test value: -0.186

item sequence: RRIRCRPPRLPRPRPRPGMLPRP
test value: -0.135

item sequence: RRIRMRPPRLPRPRPRPIDHPRP
test value: 0.0383

item sequence: RRIRARPPRLPRPRPRPTEQPRP
test value: 0.184

## Input Give the observed shrunken log2 fold change of "RRIRSRPPRLPRPRPRPNRCPRP" for Escherichia coli TOP10.
## Output 0.173

## Input Give the observed shrunken log2 fold change of "RRIRERPPRLPRPRPRPYSEPRP" for Escherichia coli TOP10.
## Output -0.157

## Input Give the observed shrunken log2 fold change of "RRIRYRPPRLPRPRPRPIYKPRP" for Escherichia coli TOP10.
## Output -0.396

## Input Give the observed shrunken log2 fold change of "RRIRFRPPRLPRPRPRPTKLPRP" for Escherichia coli TOP10.
## Output -0.494

## Input Give the observed shrunken log2 fold change of "RRIRIRPPRLPRPRPRPPMRPRP" for Escherichia coli TOP10.
## Output 0.591

## Input Give the observed shrunken log2 fold change of "RRIRERPPRLPRPRPRPMRRPRP" for Escherichia coli TOP10.
## Output -0.0292

## Input Give the observed shrunken log2 fold change of "RRIRGRPPRLPRPRPRPCMMPRP" for Escherichia coli TOP10.
## Output 0.145

====

Tested on: Escherichia coli TOP10
assay comment: shrunken log2 fold change of peptide-encoding DNA abundance (4.5 h post-induction vs induction); higher = less antimicrobial activity (less host growth inhibition)
condition notes: time post-induction: 4.5 h; library: site-saturation at positions 5, 18, 19, 20
shrunken log2 fold change below 0.05 gives not fulfilled; shrunken log2 fold change at or above it gives fulfilled.

Record excerpt, results attached:
item sequence: RRIRERPPRLPRPRPRPVPLPRP
class: not fulfilled

item sequence: RRIRSRPPRLPRPRPRPFKKPRP
class: fulfilled

item sequence: RRIRPRPPRLPRPRPRPRNRPRP
class: fulfilled

item sequence: RRIRVRPPRLPRPRPRPNFSPRP
class: not fulfilled

item sequence: RRIRYRPPRLPRPRPRPYHGPRP
class: not fulfilled

## Input Threshold query (shrunken log2 fold change >= 0.05) on "RRIRERPPRLPRPRPRPCRCPRP"
## Output not fulfilled

## Input Threshold query (shrunken log2 fold change >= 0.05) on "RRIRRRPPRLPRPRPRPWNHPRP"
## Output not fulfilled

## Input Threshold query (shrunken log2 fold change >= 0.05) on "RRIRRRPPRLPRPRPRPASWPRP"
## Output fulfilled

====

Tested on: Escherichia coli TOP10
assay comment: shrunken log2 fold change of peptide-encoding DNA abundance (4.5 h post-induction vs induction); higher = less antimicrobial activity (less host growth inhibition)
condition notes: time post-induction: 4.5 h; library: site-saturation at positions 5, 18, 19, 20
Output schema: class label derived from shrunken log2 fold change. Mapping: low interval: < -0.1; middle interval: ≥ -0.1 and < 0.1; high interval: ≥ 0.1

item sequence: RRIRKRPPRLPRPRPRPESFPRP
class: middle interval
//
item sequence: RRIRHRPPRLPRPRPRPGTIPRP
class: middle interval

## Input Hello team, could you let me know which band the following sequence falls into: "RRIRIRPPRLPRPRPRPYIPPRP"
## Output low interval

## Input Hello team, could you let me know which band the following sequence falls into: "RRIRERPPRLPRPRPRPFVIPRP"
## Output low interval

## Input Hello team, could you let me know which band the following sequence falls into: "RRIRTRPPRLPRPRPRPVGAPRP"
## Output high interval

## Input Hello team, could you let me know which band the following sequence falls into: "RRIRSRPPRLPRPRPRPYRIPRP"
## Output high interval

## Input Hello team, could you let me know which band the following sequence falls into: "RRIRCRPPRLPRPRPRPSCIPRP"
## Output low interval

====

Test system: Escherichia coli TOP10
assay comment: shrunken log2 fold change of peptide-encoding DNA abundance (4.5 h post-induction vs induction); higher = less antimicrobial activity (less host growth inhibition)
condition notes: time post-induction: 4.5 h; library: site-saturation at positions 5, 18, 19, 20
Each item that follows carries a reported shrunken log2 fold change.
Reply with just the number.

item sequence: RRIRLRPPRLPRPRPRPVGDPRP
shrunken log2 fold change: 0.416
--
item sequence: RRIRGRPPRLPRPRPRPHMWPRP
shrunken log2 fold change: -0.0527
--
item sequence: RRIRGRPPRLPRPRPRPSGLPRP
shrunken log2 fold change: 0.3
--
item sequence: RRIRTRPPRLPRPRPRPQRPPRP
shrunken log2 fold change: 0.158
--
item sequence: RRIRKRPPRLPRPRPRPQKMPRP
shrunken log2 fold change: 0.0795

## Input Determine from records and report shrunken log2 fold change for "RRIRLRPPRLPRPRPRPAVNPRP"
## Output -0.0174

## Input Determine from records and report shrunken log2 fold change for "RRIRARPPRLPRPRPRPIVHPRP"
## Output -0.311

## Input Determine from records and report shrunken log2 fold change for "RRIRGRPPRLPRPRPRPHTYPRP"
## Output -0.0875

====

Tested on: Escherichia coli TOP10
assay comment: shrunken log2 fold change of peptide-encoding DNA abundance (4.5 h post-induction vs induction); higher = less antimicrobial activity (less host growth inhibition)
condition notes: time post-induction: 4.5 h; library: site-saturation at positions 5, 18, 19, 20
observable: shrunken log2 fold change
Reply with just the number.

Reference set, count: 5
item sequence: RRIRVRPPRLPRPRPRPVMMPRP
test value: -0.938
//
item sequence: RRIRVRPPRLPRPRPRPWWYPRP
test value: -0.327
//
item sequence: RRIRERPPRLPRPRPRPAVYPRP
test value: -0.221
//
item sequence: RRIRYRPPRLPRPRPRPGWQPRP
test value: 0.015
//
item sequence: RRIRARPPRLPRPRPRPIENPRP
test value: 0.203

## Input Determine from records and report shrunken log2 fold change for "RRIRPRPPRLPRPRPRPFIFPRP"
## Output 0.29

## Input Determine from records and report shrunken log2 fold change for "RRIRWRPPRLPRPRPRPQGYPRP"
## Output -0.0909

====

Tested on: Escherichia coli TOP10
assay comment: shrunken log2 fold change of peptide-encoding DNA abundance (4.5 h post-induction vs induction); higher = less antimicrobial activity (less host growth inhibition)
condition notes: time post-induction: 4.5 h; library: site-saturation at positions 5, 18, 19, 20
shrunken log2 fold change below -0.03 gives no; shrunken log2 fold change at or above it gives yes.

item sequence: RRIRQRPPRLPRPRPRPICFPRP
class: no
--
item sequence: RRIRNRPPRLPRPRPRPYGSPRP
class: no
--
item sequence: RRIRMRPPRLPRPRPRPYYAPRP
class: no
--
item sequence: RRIRYRPPRLPRPRPRPYYMPRP
class: no
--
item sequence: RRIRWRPPRLPRPRPRPTWMPRP
class: yes

## Input Threshold query (shrunken log2 fold change >= -0.03) on "RRIRVRPPRLPRPRPRPTMKPRP"
## Output no

## Input Threshold query (shrunken log2 fold change >= -0.03) on "RRIRKRPPRLPRPRPRPQLYPRP"
## Output yes

====

System: Escherichia coli TOP10;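 note: peptides expressed intracellularly from a pBAD plasmid library in pooled LB shake-flask culture, induced with 0.3% L-arabinose, DNA abundance read by NGS, three biological replicates, DESeq2 with apeglm shrinkage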
assay comment: shrunken log2 fold change of peptide-encoding DNA abundance (4.5 h post-induction vs induction); higher = less antimicrobial activity (less host growth inhibition)
condition notes: time post-induction: 4.5 h; library: site-saturation at positions 5, 18, 19, 20
Each item that follows carries a reported shrunken log2 fold change.

## Input Determine from records and report shrunken log2 fold change for "RRIRVRPPRLPRPRPRPPDTPRP"
## Output 0.166

## Input Determine from records and report shrunken log2 fold change for "RRIRHRPPRLPRPRPRPMDNPRP"
## Output -0.262

## Input Determine from records and report shrunken log2 fold change for "RRIRNRPPRLPRPRPRPSYWPRP"
## Output -0.145

## Input Determine from records and report shrunken log2 fold change for "RRIRPRPPRLPRPRPRPSLNPRP"
## Output -0.539

## Input Determine from records and report shrunken log2 fold change for "RRIRLRPPRLPRPRPRPLGPPRP"
## Output 0.332

## Input Determine from records and report shrunken log2 fold change for "RRIRYRPPRLPRPRPRPNFEPRP"
## Output -0.242

## Input Determine from records and report shrunken log2 fold change for "RRIRYRPPRLPRPRPRPGMFPRP"
## Output -0.524

## Input Determine from records and report shrunken log2 fold change for "RRIRDRPPRLPRPRPRPQKVPRP"
## Output -0.114
